tested on: MCF7; experiment: NCI 60 cell-line test; assay type: cell-based, human; details: MCF7 (Breast Cancer); read-out: LC50 (the source's name)
measured_parameter: CC50

Inquiry: Query: CC50; subject: CC1(C)C2CC[C@@]1(CS(=O)(=O)N(C1CCCCC1)C1CCCCC1)C(O)C2 (stereo partly shown)
Reply text: > 100 µM

---

system: UACC-257; test: NCI 60 cell-line test; assay type: cell-based, human; settings: UACC-257 (Melanoma); read-out: LC50 (the source's name)
measured_parameter: CC50

Inquiry: Look at this compound and give its reported CC50. CC1(C)C2CC[C@@]1(CS(=O)(=O)N(C1CCCCC1)C1CCCCC1)C(O)C2 (stereo partly shown) [MT103]
Reply text: > 100 µM

---

system: MALME-3M; experiment: NCI 60 cell-line test; format: cell-based, human; settings: MALME-3M (Melanoma); read-out: LC50 (the source's name)
measured_parameter: CC50

Inquiry: Enter reported CC50 observed with MALME-3M for CC1(C)C2CC[C@@]1(CS(=O)(=O)N(C1CCCCC1)C1CCCCC1)C(O)C2 (stereo partly shown)
Reply text: > 100 µM

---

system: UACC-62; test: NCI 60 cell-line test; assay type: cell-based, human; settings: UACC-62 (Melanoma); read-out: LC50 (the source's name)
measured_parameter: CC50

Inquiry: Requested read-out CC50, target or system UACC-62, entry CC1(C)C2CC[C@@]1(CS(=O)(=O)N(C1CCCCC1)C1CCCCC1)C(O)C2 (stereo partly shown) [MT103]
Reply text: > 100 µM

---

tested on: EKVX; assay: NCI 60 cell-line test; assay type: cell-based, human; settings: EKVX (Non-Small Cell Lung Cancer); read-out: LC50 (the source's name)
measured_parameter: CC50

Inquiry: Recorded CC50 of CC1(C)C2CC[C@@]1(CS(=O)(=O)N(C1CCCCC1)C1CCCCC1)C(O)C2 (stereo partly shown) , please.
Reply text: > 100 µM

---

test system: RPMI-8226; experiment: NCI 60 cell-line test; type: cell-based, human; details: RPMI-8226 (Leukemia); read-out: G150
measured_parameter: pIC50
Reminder that pIC50 is minus the log10 of a molar concentration.

Inquiry: Given the molecule CC1(C)C2CC[C@@]1(CS(=O)(=O)N(C1CCCCC1)C1CCCCC1)C(O)C2 (stereo partly shown) , what is its reported pIC50?
Reply text: 4.93

---

system: HT29; test: NCI 60 cell-line test; type: cell-based, human; details: HT29 (Colon Cancer); read-out: LC50 (the source's name)
measured_parameter: CC50

Inquiry: Returns the measured CC50 for the input compound. Input: CC1(C)C2CC[C@@]1(CS(=O)(=O)N(C1CCCCC1)C1CCCCC1)C(O)C2 (stereo partly shown)
Reply text: > 100 µM

---

tested on: COLO 205; experiment: NCI 60 cell-line test; type: cell-based, human; conditions: COLO 205 (Colon Cancer); read-out: LC50 (the source's name)
measured_parameter: CC50

Inquiry: CC50 of CC1(C)C2CC[C@@]1(CS(=O)(=O)N(C1CCCCC1)C1CCCCC1)C(O)C2 (stereo partly shown) on COLO 205?
Reply text: > 100 µM

---

tested on: MCF7; assay: NCI 60 cell-line test; format: cell-based, human; details: MCF7 (Breast Cancer); read-out: G150
measured_parameter: pIC50
FYI, pIC50 means -log10 of a concentration in mol per litre.

Inquiry: Form field: reported pIC50 of CC1(C)C2CC[C@@]1(CS(=O)(=O)N(C1CCCCC1)C1CCCCC1)C(O)C2 (stereo partly shown)
Reply text: 4.69

Reference source: patent US20040266732A1
